Entry source: ChEMBL document CHEMBL1629630

Biological target: Inositol phosphorylceramide synthase catalytic subunit AUR1 (Saccharomyces cerevisiae S288c, UniProt P36107)
Test: Inhibition of Saccharomyces cerevisiae SJ21R inositol phosphorylceramide synthase preincubated for 30 mins
Sequence (P36107 whole entry): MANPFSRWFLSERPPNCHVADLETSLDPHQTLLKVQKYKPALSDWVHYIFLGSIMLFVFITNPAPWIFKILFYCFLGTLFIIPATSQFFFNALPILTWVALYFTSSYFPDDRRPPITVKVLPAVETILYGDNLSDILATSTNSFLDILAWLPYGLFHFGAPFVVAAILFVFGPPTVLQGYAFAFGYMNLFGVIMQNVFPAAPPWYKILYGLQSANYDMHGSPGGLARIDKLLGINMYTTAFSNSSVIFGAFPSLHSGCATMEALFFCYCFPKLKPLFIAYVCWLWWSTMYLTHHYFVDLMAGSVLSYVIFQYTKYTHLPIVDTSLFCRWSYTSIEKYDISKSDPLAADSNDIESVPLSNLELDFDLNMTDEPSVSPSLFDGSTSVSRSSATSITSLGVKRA
ENDPOINT: IC50 (nM)

[[record]]
compound = "CCCCCCCCCC[C@H](C)[C@@H](O)[C@@H](C)/C=C(C)/C=C(\\C)C(=O)[C@H](C)/C=C(\\C)C(=O)O[C@H](CO)[C@@H](O)[C@H](O)C(=O)O [KHAFREFUNGIN]"
u = "nM"
readout_number = 43

[[record]]
compound = "C=C1/C=C(\\C)[C@H](CC)CC(=O)[C@H](C)C(=O)[C@@](O)(CO)C/C(OC)=C/[C@@H](C)C1 [RUSTMICIN]"
u = "nM"
readout_number = 13


====

Biological target: Inositol phosphorylceramide synthase (Candida albicans (strain SC5314 / ATCC MYA-2876) (Yeast))
Sequence (O13332 whole entry): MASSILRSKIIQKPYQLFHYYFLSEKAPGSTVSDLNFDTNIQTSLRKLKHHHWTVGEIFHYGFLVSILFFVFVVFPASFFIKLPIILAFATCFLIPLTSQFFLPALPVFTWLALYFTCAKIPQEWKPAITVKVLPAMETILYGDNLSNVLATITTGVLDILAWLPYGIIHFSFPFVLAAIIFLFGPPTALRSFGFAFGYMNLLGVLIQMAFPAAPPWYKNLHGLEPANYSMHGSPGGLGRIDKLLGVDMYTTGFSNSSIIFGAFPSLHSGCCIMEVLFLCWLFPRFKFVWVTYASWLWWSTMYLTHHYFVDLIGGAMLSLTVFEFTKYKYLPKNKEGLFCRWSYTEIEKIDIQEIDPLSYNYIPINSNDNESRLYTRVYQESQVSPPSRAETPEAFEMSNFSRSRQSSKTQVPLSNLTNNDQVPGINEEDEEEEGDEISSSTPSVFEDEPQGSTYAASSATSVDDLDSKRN
Assay: Reversible inhibition of Candida albicans inositol phosphorylceramide synthase
ENDPOINT: IC50 (nM)

[[record]]
compound = "C=C1/C=C(\\C)[C@H](CC)CC(=O)[C@H](C)C(=O)[C@@](O)(CO)C/C(OC)=C/[C@@H](C)C1 [RUSTMICIN]"
readout_number = 3.8


====

Target: Inositol phosphorylceramide synthase catalytic subunit AUR1 (Saccharomyces cerevisiae S288c, UniProt P36107)
Experiment: Inhibition of aureobasidin A-resistant Saccharomyces cerevisiae inositol phosphorylceramide synthase preincubated for 30 mins
Sequence (P36107 whole entry, looked up): as the sequence (P36107 whole entry) above
# IC50 per entry
ENDPOINT: IC50 (µM)

[[record]]
smiles_record = "CCCCCCCCCC[C@H](C)[C@@H](O)[C@@H](C)/C=C(C)/C=C(\\C)C(=O)[C@H](C)/C=C(\\C)C(=O)O[C@H](CO)[C@@H](O)[C@H](O)C(=O)O"
readout_number = 11.3

[[record]]
smiles_record = "C=C1/C=C(\\C)[C@H](CC)CC(=O)[C@H](C)C(=O)[C@@](O)(CO)C/C(OC)=C/[C@@H](C)C1"
readout_number = 27.2


====

Target: Inositol phosphorylceramide synthase (Candida albicans (strain SC5314 / ATCC MYA-2876) (Yeast))
Numbered stars: 1 amine (or outer) side, 2 acyl side, 3 side chain; on linkers, the order of the positions; unused ones are H or OH. Square brackets hold non-standard residues; d marks the D form. Peptide text beside a SMILES is read from it. X1 = CC[C@@H](C)[C@@H](O[*:1])C(=O)[*:2]; NMeVal(β-OH) = CN[C@H](C(=O)O)C(C)(C)O; NMeF = CN[C@@H](Cc1ccccc1)C(=O)O; aIle = CC[C@@H](C)[C@H](N)C(=O)O; NMeV = CN[C@H](C(=O)O)C(C)C
ENDPOINT: log10 of Ki (log10 of the value in µM)

[[record]]
molecule = "CCCC(CCC)C(=O)N(C)C(C(=O)O[C@@H](C(=O)N(C)CCc1ccc(OC)c(OC)c1)c1ccccc1)C(C)(C)O (stereo partly specified)"
endpoint = "log10 of Ki"
readout_number = 0.90

[[record]]
molecule = "CCCCCCCCCC[C@H](C)[C@@H](O)[C@@H](C)/C=C(C)/C=C(\\C)C(=O)[C@H](C)/C=C(\\C)C(=O)O[C@H](CO)[C@@H](O)[C@H](O)C(=O)O"
endpoint = "log10 of Ki"
readout_number = -3.37

[[record]]
molecule = "COc1ccc(CCN(C)C(=O)[C@H](OC(=O)C(N(C)C(=O)CCCCCc2ccccc2)C(C)(C)O)c2ccccc2)cc1OC (stereo partly specified)"
endpoint = "log10 of Ki"
readout_number = 1.02

[[record]]
molecule = "CC[C@@H](C)[C@@H]1NC(=O)[C@@H]2CCCN2C(=O)[C@H](Cc2ccccc2)N(C)C(=O)[C@H](Cc2ccccc2)NC(=O)[C@H](C(C)C)N(C)C(=O)[C@@H]([C@H](C)CC)OC(=O)[C@H](C(C)(C)O)N(C)C(=O)[C@H](CC(C)C)NC(=O)[C@H](C(C)C)N(C)C1=O [AUREOBASIDIN A] (cyclo(F[NMeF]P[aIle][NMeV]L[NMeVal(β-OH)][X1][NMeV]))"
endpoint = "log10 of Ki"
readout_number = -3.74

[[record]]
molecule = "CCCCCCCCC(=O)N(C)C(C(=O)O[C@@H](C(=O)N(C)CCc1ccc(OC)c(OC)c1)c1ccccc1)C(C)(C)O (stereo partly specified)"
endpoint = "log10 of Ki"
readout_number = 1.07

[[record]]
molecule = "C=C1/C=C(\\C)[C@H](CC)CC(=O)[C@H](C)C(=O)[C@@](O)(CO)C/C(OC)=C/[C@@H](C)C1"
endpoint = "log10 of Ki"
readout_number = -1.80

